molecular target: native human MET on living cells (human, UniProt P08581 25-1390); assay: cell-based or functional assay
Sequence (P08581 25-1390): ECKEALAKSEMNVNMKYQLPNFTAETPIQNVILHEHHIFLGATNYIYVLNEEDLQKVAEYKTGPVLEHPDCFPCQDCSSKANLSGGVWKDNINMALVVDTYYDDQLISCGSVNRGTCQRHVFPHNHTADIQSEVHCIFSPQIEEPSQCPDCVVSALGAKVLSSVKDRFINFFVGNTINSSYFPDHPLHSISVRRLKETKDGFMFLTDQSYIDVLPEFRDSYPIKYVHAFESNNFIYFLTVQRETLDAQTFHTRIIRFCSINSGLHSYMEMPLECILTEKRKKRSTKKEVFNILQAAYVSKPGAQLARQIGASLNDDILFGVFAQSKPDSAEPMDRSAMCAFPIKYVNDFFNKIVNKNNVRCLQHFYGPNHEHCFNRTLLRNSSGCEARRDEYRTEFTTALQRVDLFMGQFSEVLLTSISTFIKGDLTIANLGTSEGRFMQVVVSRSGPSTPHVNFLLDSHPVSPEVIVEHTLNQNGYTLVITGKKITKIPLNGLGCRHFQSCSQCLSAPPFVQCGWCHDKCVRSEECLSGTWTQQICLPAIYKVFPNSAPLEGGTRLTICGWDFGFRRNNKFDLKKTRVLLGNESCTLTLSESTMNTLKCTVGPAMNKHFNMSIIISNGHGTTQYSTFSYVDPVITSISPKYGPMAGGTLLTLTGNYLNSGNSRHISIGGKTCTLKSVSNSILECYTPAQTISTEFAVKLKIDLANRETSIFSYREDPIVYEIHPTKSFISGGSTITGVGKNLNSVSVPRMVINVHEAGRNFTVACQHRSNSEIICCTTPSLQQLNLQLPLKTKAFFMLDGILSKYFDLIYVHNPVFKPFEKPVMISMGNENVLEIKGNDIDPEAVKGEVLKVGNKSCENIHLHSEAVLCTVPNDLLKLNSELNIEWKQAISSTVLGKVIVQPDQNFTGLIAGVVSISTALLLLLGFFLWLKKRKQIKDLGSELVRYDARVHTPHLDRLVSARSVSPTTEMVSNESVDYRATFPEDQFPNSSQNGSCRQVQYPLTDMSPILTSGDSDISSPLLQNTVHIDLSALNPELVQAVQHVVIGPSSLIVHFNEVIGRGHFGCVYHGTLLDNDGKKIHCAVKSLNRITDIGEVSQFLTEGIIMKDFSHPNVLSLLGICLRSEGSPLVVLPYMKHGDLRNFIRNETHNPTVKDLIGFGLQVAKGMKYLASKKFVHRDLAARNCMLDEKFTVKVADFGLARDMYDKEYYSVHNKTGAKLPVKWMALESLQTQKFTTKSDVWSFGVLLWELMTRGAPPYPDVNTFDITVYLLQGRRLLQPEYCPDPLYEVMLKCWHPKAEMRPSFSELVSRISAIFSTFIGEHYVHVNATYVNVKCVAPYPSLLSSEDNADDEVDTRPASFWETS
Documented scatter score 0-4, HPAF-II, 3.000 nM across a set of binders
Answer format: numeric, score implied, no suffix.

Guide cases for scatter score 0-4, HPAF-II, 3.000 nM, answers given:
BINDER	UNITS	scatter score 0-4, HPAF-II, 3.000 nM
76G7 chimeric llama-human IgG1 mAb (antibody, V domains shown, llama VH on human IgG1 CH1-CH2-CH3, llama VL on human lambda CL) VH: QVQLVESGGNLVQPGGSLRLSCAASGFTFSNYYMSWVRQAPGKGLEWVSDIYSDGSTTWYSDSVKGRFTISRDNAKNTLSLQMNSLKSEDTAVYYCARVKIYPGGYDAWGQGTQVTVSS VL: QAGLTQPPSVSGSPGKTVTISCAGNSSDVGYGNYVSWYQQFPGMAPKLLIYLVNKRASGITDRFSGSKSGNTASLTISGLQSEDEADYYCASYTGSNNIVFGGGTHLTVL	score	2
74C8 chimeric llama-human IgG1 mAb (antibody, V domains shown, llama VH on human IgG1 CH1-CH2-CH3, llama VL on human lambda CL) VH: EVQLVESGGGLVQPGGSLRLSCAASGFTFRNYHMSWVRQVPGKGFEWISDINSAGGSTYYADSVKGRFTISRDNAKNTLYLEMNSLKPEDTALYYCARVNVWGVNYWGKGTLVSVSS VL: QTVVTQEPSLSVSPGGTVTLTCGLSSGSVTTSNYPGWFQQTPGQAPRTLIYNTNSRHSGVPSRFSGSISGNKAALTITGAQPEDEADYYCSLYPGSYTNVFGGGTHLTVL	score	4

Now for a further binder.
scatter score 0-4, HPAF-II, 3.000 nM reading for 72F8 chimeric llama-human IgG1 mAb (antibody, V domains shown, llama VH on human IgG1 CH1-CH2-CH3, llama VL on human lambda CL) VH: ELQLVESGGGLVQPGGSLRLSCAASGFTFSNYVMSWVRQAPGKGLEWVSDTNSGGSTSYADSVKGRFTISRDNAKNTLYLQMNSLKPEDTALYYCARSFFYGMNYWGKGTQVTVSS VL: QSALTQPPSLSASPGSSVRLTCTLSSGNNIGSYDISWYQQKAGSPPRYLLNYYTDSRKHQDSGVPSRFSGSKDASANAGLLLISGLQPEDEADYYCSAYKSGSYRWVFGGGTHVTVL : 2
